The values you see were collected from paper PMC6019134.

STUDY SYSTEM: MAP2K7A (Homo sapiens, UniProt O14733)
Construct: purchased in-house (home-made panel, SGC-style construct names)
Sequence (O14733 whole entry): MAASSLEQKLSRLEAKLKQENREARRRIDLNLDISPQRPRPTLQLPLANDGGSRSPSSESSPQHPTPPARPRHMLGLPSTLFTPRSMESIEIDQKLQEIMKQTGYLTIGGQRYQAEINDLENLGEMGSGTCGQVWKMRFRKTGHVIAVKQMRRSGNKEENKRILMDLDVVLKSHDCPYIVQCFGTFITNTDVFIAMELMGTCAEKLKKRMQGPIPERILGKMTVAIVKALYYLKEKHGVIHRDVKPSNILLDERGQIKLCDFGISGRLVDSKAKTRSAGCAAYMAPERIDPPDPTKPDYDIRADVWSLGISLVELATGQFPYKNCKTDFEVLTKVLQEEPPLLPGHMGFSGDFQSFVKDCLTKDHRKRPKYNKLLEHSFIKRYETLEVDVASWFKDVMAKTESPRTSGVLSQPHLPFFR
PROCEDURE SUMMARY: DSF thermal shift, kinase panel
Format: binding
APPLIED CONDITIONS: 10 μM compound
Reported ΔTm at 10 µM values for the following compounds.
READOUT KIND: ΔTm at 10 µM (°C)

1) Cc1ccc(Nc2nsnc(Nc3cccc(C(N)=O)c3)c2=O)cc1O [Compound 1]
1.1
2) Cc1ccc(Nc2nsnc(Nc3ccc(C(N)=O)cc3)c2=O)cc1O [Compound 2]
3.1
3) CNC(=O)c1ccccc1Nc1nsnc(Nc2cccc(CS(C)(=O)=O)c2)c1=O [Compound 4]
0.6
4) Cc1ccc(Nc2nsnc(Nc3ccc4c(c3)CS(=O)(=O)C4)c2=O)cc1O [Compound 3]
3.2
5) CNC(=O)c1ccccc1Nc1nsnc(Nc2ccc(N3CCOCC3)cc2)c1=O [Compound 5]
1

====

STUDY SYSTEM: BMP2K (Homo sapiens)
Construct: purchased in-house (home-made panel, SGC-style construct names)
Sequence (Q9NSY1 whole entry): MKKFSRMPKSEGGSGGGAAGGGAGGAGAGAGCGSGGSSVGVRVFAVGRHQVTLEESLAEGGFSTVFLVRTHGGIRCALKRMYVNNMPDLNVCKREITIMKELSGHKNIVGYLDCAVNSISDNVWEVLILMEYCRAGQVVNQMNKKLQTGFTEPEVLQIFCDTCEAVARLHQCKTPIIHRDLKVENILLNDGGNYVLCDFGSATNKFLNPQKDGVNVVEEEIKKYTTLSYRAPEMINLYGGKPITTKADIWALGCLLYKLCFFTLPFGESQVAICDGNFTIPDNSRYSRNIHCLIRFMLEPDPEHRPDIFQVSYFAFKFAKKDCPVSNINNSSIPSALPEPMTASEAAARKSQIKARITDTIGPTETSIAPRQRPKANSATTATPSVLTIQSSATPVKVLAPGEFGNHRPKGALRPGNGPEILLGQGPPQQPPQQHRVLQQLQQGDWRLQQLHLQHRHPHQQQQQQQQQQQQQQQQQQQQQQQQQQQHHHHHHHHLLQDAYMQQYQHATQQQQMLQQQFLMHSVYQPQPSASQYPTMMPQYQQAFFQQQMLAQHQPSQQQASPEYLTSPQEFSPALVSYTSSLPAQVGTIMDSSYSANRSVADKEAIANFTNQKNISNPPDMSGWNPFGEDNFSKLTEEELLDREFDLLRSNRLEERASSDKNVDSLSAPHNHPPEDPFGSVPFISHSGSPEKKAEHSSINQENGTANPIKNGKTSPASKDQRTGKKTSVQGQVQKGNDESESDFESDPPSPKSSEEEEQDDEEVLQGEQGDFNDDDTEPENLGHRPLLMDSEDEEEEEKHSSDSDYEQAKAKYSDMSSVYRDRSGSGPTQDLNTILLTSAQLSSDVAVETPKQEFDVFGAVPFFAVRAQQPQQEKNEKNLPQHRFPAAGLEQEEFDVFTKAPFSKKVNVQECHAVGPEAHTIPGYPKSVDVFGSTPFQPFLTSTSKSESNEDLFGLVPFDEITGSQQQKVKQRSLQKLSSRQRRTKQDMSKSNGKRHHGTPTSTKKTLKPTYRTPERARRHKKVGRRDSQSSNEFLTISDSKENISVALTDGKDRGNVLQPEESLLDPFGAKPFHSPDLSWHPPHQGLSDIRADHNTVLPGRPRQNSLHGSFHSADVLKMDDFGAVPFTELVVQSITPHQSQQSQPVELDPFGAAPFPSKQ
PROCEDURE SUMMARY: DSF thermal shift, kinase panel
Format: binding
APPLIED CONDITIONS: 10 μM compound
Listed compounds paired with reported ΔTm at 10 µM
READOUT KIND: ΔTm at 10 µM (°C)

1. Cc1ccc(Nc2nsnc(Nc3cccc(C(N)=O)c3)c2=O)cc1O
-0.4
2. CNC(=O)c1ccccc1Nc1nsnc(Nc2ccc(N3CCOCC3)cc2)c1=O
-0.1
3. Cc1ccc(Nc2nsnc(Nc3ccc(C(N)=O)cc3)c2=O)cc1O
-0.2
4. Cc1ccc(Nc2nsnc(Nc3ccc4c(c3)CS(=O)(=O)C4)c2=O)cc1O
0.1
5. CNC(=O)c1ccccc1Nc1nsnc(Nc2cccc(CS(C)(=O)=O)c2)c1=O
-0.1

====

STUDY SYSTEM: CAMKK2 kinase domain (132–470) (Homo sapiens)
Construct: CAMKK2 kinase domain (132–470) was cloned in a pNIC-Bio2 vector; 10xHis tag followed by a TEV site (N, cleaved yes)
Sequence (Q96RR4 132-470): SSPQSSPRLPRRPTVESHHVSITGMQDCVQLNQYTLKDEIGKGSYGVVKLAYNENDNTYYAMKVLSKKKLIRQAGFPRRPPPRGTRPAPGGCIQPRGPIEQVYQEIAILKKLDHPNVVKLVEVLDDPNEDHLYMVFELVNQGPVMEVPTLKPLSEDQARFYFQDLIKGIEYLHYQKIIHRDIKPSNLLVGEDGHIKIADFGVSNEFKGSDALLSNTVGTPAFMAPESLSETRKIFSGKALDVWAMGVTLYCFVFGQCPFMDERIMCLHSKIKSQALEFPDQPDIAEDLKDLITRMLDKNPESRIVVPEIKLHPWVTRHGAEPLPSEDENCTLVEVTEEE
PROCEDURE SUMMARY: CaMKK2B TR-FRET tracer displacement assay
APPLIED CONDITIONS: CaMKK2, displacement of tracer 236, average of 2 experiments
pIC50: −log10 of the molar value.
Let's look at some compounds and their measured pIC50.
READOUT KIND: pIC50

1) Cc1ccc(Nc2nsnc(-c3ccc(C(=O)O)c(C4CCCC4)c3)c2=O)cc1O
4.42
2) Cc1ccc(Nc2nsnc(Nc3ccc(C(=O)O)cc3)c2=O)cc1O
4.98

====

STUDY SYSTEM: RPS6KA6A (Homo sapiens, UniProt Q9UK32)
Construct: purchased in-house (home-made panel, SGC-style construct names)
Sequence (Q9UK32 whole entry): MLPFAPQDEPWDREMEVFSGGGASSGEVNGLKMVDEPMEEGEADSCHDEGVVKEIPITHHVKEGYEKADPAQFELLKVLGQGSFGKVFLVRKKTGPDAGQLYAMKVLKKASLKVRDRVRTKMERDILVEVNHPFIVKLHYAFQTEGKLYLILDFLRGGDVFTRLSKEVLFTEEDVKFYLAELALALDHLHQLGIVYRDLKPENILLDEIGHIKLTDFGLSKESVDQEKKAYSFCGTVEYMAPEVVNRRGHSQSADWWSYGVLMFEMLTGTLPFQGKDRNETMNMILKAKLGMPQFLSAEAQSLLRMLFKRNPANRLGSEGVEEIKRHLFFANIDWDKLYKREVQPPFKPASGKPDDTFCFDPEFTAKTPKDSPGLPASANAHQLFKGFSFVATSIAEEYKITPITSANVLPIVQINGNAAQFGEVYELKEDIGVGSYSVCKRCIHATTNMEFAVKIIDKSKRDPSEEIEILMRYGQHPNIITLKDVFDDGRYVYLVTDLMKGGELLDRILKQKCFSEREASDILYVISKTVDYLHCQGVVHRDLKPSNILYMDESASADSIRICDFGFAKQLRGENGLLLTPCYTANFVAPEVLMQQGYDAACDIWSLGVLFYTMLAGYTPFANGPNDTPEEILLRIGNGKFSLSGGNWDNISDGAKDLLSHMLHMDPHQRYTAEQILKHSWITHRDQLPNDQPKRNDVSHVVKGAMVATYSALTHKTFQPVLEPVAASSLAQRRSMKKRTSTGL
PROCEDURE SUMMARY: DSF thermal shift, kinase panel
Assay type: binding
APPLIED CONDITIONS: 10 μM compound
Assign labels as follows, please: Y for ΔTm at 10 µM below 0.9 °C; N for ΔTm at 10 µM equal to or exceeding 0.9 °C.

1. CNC(=O)c1ccccc1Nc1nsnc(Nc2cccc(CS(C)(=O)=O)c2)c1=O [Compound 4]
Y
2. Cc1ccc(Nc2nsnc(Nc3ccc(C(N)=O)cc3)c2=O)cc1O [Compound 2]
N
3. CNC(=O)c1ccccc1Nc1nsnc(Nc2ccc(N3CCOCC3)cc2)c1=O [Compound 5]
Y
4. Cc1ccc(Nc2nsnc(Nc3cccc(C(N)=O)c3)c2=O)cc1O [Compound 1]
Y

====

# ΔTm at 10 µM values compiled below
STUDY SYSTEM: CAMK1D (Homo sapiens)
Construct: purchased in-house (home-made panel, SGC-style construct names)
Sequence (Q8IU85 whole entry): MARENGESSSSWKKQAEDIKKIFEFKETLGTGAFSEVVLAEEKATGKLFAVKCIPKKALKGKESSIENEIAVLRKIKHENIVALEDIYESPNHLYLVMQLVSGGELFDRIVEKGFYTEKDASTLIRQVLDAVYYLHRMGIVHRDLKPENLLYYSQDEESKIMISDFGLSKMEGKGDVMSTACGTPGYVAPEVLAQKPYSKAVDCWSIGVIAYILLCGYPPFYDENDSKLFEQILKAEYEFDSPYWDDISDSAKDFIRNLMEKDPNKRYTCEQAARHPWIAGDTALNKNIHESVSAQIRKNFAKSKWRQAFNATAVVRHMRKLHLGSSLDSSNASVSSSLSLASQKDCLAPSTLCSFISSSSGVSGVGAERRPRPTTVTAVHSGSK
PROCEDURE SUMMARY: DSF thermal shift, kinase panel
Format: binding
APPLIED CONDITIONS: 10 μM compound
READOUT KIND: ΔTm at 10 µM (°C)

1. CNC(=O)c1ccccc1Nc1nsnc(Nc2ccc(N3CCOCC3)cc2)c1=O
-0.9
2. Cc1ccc(Nc2nsnc(Nc3ccc(C(N)=O)cc3)c2=O)cc1O
4.3
3. Cc1ccc(Nc2nsnc(Nc3cccc(C(N)=O)c3)c2=O)cc1O
0.8
4. Cc1ccc(Nc2nsnc(Nc3ccc4c(c3)CS(=O)(=O)C4)c2=O)cc1O
1.4
5. CNC(=O)c1ccccc1Nc1nsnc(Nc2cccc(CS(C)(=O)=O)c2)c1=O
-1.3

====

STUDY SYSTEM: MAPK1A (Homo sapiens, UniProt P28482)
Construct: purchased in-house (home-made panel, SGC-style construct names)
Sequence (P28482 whole entry): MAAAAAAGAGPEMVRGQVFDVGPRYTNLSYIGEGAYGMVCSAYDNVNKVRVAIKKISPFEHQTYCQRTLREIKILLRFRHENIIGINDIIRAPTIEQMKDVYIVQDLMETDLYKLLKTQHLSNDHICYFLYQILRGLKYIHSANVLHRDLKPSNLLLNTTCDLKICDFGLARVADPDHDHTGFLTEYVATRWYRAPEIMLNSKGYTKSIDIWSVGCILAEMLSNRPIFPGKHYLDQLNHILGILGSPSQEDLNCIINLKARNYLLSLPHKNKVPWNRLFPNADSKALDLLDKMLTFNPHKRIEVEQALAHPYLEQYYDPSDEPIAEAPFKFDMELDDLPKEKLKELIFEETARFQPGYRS
PROCEDURE SUMMARY: DSF thermal shift, kinase panel
Assay type: binding
APPLIED CONDITIONS: 10 μM compound
Each item that follows carries a reported ΔTm at 10 µM.
READOUT KIND: ΔTm at 10 µM

1. Cc1ccc(Nc2nsnc(Nc3cccc(C(N)=O)c3)c2=O)cc1O [Compound 1]
-0.2 °C
2. Cc1ccc(Nc2nsnc(Nc3ccc4c(c3)CS(=O)(=O)C4)c2=O)cc1O [Compound 3]
0.1 °C
3. CNC(=O)c1ccccc1Nc1nsnc(Nc2cccc(CS(C)(=O)=O)c2)c1=O [Compound 4]
-0.3 °C
4. Cc1ccc(Nc2nsnc(Nc3ccc(C(N)=O)cc3)c2=O)cc1O [Compound 2]
1.4 °C
5. CNC(=O)c1ccccc1Nc1nsnc(Nc2ccc(N3CCOCC3)cc2)c1=O [Compound 5]
-0.3 °C

====

STUDY SYSTEM: CDKL1 (Homo sapiens)
Construct: purchased in-house (home-made panel, SGC-style construct names)
Sequence (Q00532 whole entry): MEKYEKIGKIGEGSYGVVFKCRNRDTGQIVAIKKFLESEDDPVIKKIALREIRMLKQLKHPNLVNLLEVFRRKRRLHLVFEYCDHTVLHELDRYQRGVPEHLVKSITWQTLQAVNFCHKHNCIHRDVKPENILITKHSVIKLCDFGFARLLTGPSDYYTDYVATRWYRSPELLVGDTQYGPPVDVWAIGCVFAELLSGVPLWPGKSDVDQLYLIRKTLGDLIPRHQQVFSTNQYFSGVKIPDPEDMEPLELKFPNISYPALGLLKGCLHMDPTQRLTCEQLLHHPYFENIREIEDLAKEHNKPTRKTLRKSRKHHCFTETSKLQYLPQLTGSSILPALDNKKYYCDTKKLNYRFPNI
PROCEDURE SUMMARY: DSF thermal shift, kinase panel
Format: binding
APPLIED CONDITIONS: 10 μM compound
Each entry below carries its recorded ΔTm at 10 µM.
READOUT KIND: ΔTm at 10 µM (°C)

1) Cc1ccc(Nc2nsnc(Nc3ccc4c(c3)CS(=O)(=O)C4)c2=O)cc1O [Compound 3]
0.9
2) Cc1ccc(Nc2nsnc(Nc3cccc(C(N)=O)c3)c2=O)cc1O [Compound 1]
1.2
3) CNC(=O)c1ccccc1Nc1nsnc(Nc2cccc(CS(C)(=O)=O)c2)c1=O [Compound 4]
0.5
4) Cc1ccc(Nc2nsnc(Nc3ccc(C(N)=O)cc3)c2=O)cc1O [Compound 2]
1
5) CNC(=O)c1ccccc1Nc1nsnc(Nc2ccc(N3CCOCC3)cc2)c1=O [Compound 5]
0.5

====

Reported ΔTm at 10 µM values for the following molecules.
STUDY SYSTEM: MAPK3A (Homo sapiens, UniProt P27361)
Construct: purchased in-house (home-made panel, SGC-style construct names)
Sequence (P27361 whole entry): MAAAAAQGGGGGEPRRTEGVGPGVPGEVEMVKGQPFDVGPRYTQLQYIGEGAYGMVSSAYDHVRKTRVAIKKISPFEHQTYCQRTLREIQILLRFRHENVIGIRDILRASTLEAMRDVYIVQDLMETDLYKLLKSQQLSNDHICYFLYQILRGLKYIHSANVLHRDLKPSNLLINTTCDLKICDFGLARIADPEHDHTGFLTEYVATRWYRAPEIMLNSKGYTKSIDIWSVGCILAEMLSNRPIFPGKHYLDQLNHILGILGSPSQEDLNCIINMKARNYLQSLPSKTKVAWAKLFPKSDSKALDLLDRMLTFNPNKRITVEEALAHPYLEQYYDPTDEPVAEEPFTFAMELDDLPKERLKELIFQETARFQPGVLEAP
PROCEDURE SUMMARY: DSF thermal shift, kinase panel
Format: binding
APPLIED CONDITIONS: 10 μM compound
READOUT KIND: ΔTm at 10 µM (°C)

1. Cc1ccc(Nc2nsnc(Nc3ccc(C(N)=O)cc3)c2=O)cc1O
1.2
2. Cc1ccc(Nc2nsnc(Nc3ccc4c(c3)CS(=O)(=O)C4)c2=O)cc1O
0.4
3. Cc1ccc(Nc2nsnc(Nc3cccc(C(N)=O)c3)c2=O)cc1O
0.1
4. CNC(=O)c1ccccc1Nc1nsnc(Nc2ccc(N3CCOCC3)cc2)c1=O
0.1
5. CNC(=O)c1ccccc1Nc1nsnc(Nc2cccc(CS(C)(=O)=O)c2)c1=O
0.1

====

Collected melting point values appear next to each entry.
READOUT KIND: melting point

1. Cc1ccc(Nc2nsnc(Nc3ccccc3C#N)c2=O)cc1O
229 to 230 °C
2. Cc1ccc(Nc2nsnc(Nc3ccc(C(N)=O)cc3)c2=O)cc1O
> 300 °C
3. Cc1ccc(Nc2nsnc(Nc3ccc4c(c3)CS(=O)(=O)C4)c2=O)cc1O
> 300 °C
4. CNC(=O)c1ccccc1Nc1nsnc(Nc2cccc(CS(C)(=O)=O)c2)c1=O
> 300 °C
5. CNC(=O)c1ccccc1Nc1nsnc(Nc2ccc(N3CCOCC3)cc2)c1=O
285 to 287 °C
6. Cc1ccc(Nc2nsnc(Nc3cccc(C#N)c3)c2=O)cc1O
258 to 259 °C
7. Cc1ccc(Nc2nsnc(Nc3ccc(C#N)cc3)c2=O)cc1O
280 °C (dec.)
8. Cc1ccc(Nc2nsnc(-c3ccc(C(=O)O)c(C4CCCC4)c3)c2=O)cc1O
277 to 278 °C

====

ΔTm at 10 µM values for the compounds below.
STUDY SYSTEM: GSG2A (Homo sapiens)
Construct: purchased in-house (home-made panel, SGC-style construct names)
Sequence (Q8TF76 1-798): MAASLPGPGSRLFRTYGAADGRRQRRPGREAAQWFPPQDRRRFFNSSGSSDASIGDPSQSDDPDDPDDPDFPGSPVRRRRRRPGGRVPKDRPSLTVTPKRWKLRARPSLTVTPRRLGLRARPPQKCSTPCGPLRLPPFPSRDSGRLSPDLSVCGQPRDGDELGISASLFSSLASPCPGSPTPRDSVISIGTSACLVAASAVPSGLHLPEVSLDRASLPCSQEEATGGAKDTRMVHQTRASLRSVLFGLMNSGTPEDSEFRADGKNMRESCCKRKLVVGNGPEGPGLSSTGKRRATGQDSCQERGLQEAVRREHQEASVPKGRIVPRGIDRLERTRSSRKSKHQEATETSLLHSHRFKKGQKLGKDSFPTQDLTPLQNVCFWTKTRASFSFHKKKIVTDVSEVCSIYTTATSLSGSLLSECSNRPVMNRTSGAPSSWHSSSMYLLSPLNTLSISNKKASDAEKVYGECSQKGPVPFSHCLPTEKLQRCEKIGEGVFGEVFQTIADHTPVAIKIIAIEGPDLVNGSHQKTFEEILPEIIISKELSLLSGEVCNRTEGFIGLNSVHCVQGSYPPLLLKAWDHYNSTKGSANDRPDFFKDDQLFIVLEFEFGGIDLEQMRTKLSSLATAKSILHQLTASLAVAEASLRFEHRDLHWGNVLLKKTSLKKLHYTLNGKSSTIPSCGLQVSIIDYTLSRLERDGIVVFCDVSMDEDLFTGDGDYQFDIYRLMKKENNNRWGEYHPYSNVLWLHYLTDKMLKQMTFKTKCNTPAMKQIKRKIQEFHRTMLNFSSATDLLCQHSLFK
PROCEDURE SUMMARY: DSF thermal shift, kinase panel
Format: binding
APPLIED CONDITIONS: 10 μM compound
READOUT KIND: ΔTm at 10 µM (°C)

1. Cc1ccc(Nc2nsnc(Nc3ccc4c(c3)CS(=O)(=O)C4)c2=O)cc1O [Compound 3]
1.2
2. CNC(=O)c1ccccc1Nc1nsnc(Nc2cccc(CS(C)(=O)=O)c2)c1=O [Compound 4]
0.4
3. Cc1ccc(Nc2nsnc(Nc3cccc(C(N)=O)c3)c2=O)cc1O [Compound 1]
0.6
4. CNC(=O)c1ccccc1Nc1nsnc(Nc2ccc(N3CCOCC3)cc2)c1=O [Compound 5]
0.3
5. Cc1ccc(Nc2nsnc(Nc3ccc(C(N)=O)cc3)c2=O)cc1O [Compound 2]
1.3
